Listing: pIC50 of selected binders
Assayed target: T1, αvβ3 integrin (human, UniProt P06756 31-1048; P05106 27-788)
T1 construct: whole, on cells; Same entry used for αvβ3-K562, U-87 MG and A375M cells; also called αvβ3-K562; αvβ3 transfected K562 cells
T1 sequence (P06756 31-1048, chain 1 of 2): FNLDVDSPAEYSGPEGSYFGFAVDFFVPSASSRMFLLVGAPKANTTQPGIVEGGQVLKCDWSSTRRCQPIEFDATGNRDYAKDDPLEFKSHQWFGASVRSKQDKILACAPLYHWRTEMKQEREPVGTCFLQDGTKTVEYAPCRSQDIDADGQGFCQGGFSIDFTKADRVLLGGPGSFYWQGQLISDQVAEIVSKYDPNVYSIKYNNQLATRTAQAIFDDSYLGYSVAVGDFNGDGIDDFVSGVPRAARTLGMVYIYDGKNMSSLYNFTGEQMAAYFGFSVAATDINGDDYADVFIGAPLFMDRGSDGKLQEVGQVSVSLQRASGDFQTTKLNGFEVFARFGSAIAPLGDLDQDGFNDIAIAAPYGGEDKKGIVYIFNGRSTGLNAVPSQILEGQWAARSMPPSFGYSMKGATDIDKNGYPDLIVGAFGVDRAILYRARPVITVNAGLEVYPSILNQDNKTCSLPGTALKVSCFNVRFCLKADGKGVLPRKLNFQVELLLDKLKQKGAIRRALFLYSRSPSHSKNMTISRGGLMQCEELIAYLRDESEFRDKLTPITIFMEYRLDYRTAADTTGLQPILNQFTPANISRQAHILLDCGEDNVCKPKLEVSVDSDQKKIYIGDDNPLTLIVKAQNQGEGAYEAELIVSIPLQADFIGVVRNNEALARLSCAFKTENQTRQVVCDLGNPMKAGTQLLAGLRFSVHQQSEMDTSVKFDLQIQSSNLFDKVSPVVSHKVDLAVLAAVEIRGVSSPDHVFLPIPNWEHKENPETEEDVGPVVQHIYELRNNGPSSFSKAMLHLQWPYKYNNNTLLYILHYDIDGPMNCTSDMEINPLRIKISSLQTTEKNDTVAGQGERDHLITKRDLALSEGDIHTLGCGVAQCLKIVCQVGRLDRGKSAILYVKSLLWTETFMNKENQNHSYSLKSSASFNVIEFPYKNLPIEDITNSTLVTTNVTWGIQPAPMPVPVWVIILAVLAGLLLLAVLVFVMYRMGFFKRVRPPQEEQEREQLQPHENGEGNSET
T1 sequence (P05106 27-788, chain 2 of 2): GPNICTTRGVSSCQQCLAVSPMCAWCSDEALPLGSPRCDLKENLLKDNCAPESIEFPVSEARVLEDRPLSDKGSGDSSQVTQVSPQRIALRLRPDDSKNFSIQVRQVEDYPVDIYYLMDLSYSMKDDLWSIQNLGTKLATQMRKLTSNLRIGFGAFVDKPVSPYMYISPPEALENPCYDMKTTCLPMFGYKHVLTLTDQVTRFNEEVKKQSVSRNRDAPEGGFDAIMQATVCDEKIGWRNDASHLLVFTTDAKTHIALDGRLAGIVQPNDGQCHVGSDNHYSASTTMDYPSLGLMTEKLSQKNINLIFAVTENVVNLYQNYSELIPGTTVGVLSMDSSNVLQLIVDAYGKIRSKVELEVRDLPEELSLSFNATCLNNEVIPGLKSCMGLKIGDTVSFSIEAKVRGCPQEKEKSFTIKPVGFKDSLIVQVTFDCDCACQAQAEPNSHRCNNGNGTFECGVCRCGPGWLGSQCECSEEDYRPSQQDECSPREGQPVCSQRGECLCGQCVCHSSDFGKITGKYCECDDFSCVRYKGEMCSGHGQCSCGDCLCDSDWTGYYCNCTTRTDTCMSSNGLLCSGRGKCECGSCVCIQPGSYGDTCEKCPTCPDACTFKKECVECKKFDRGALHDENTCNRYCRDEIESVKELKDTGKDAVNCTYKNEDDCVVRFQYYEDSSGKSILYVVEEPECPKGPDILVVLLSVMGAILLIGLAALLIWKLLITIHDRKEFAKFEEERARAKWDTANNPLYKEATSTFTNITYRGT
Method notes: flow cytometry, competition with biotinylated LXW7 on αvβ3-K562 cells; ++ = IC50 1-10 µM
pIC50: −log10 of the molar value. Bridge positions count the residues as written; N and C are the ends. Square brackets hold non-standard residues; d marks the D form. Ends that are not written are not given here. dBta = N[C@H](Cc1csc2ccccc12)C(=O)O; dCit = NC(=O)NCCC[C@@H](N)C(=O)O

{5‑bromo‑2‑furoyl}-[dC]GRGD[dD][dV][dC]-NH2 (disulfide 1-8) [LXW90]
5.00 to 6.00

Provide only the value of recorded pIC50 for nicotinyl-[dC]GRGD[dD][dV][dC]-NH2 (disulfide 1-8) [LXW92]
5.00 to 6.00

Provide only the value of recorded pIC50 for [dC]GRGD[dCit][dBta][dC]-NH2 (disulfide 1-8; N-terminus assumed; SMILES N=C(N)NCCC[C@@H]1NC(=O)CNC(=O)[C@H](N)CSSC[C@H](C(N)=O)NC(=O)[C@@H](Cc2csc3ccccc23)NC(=O)[C@@H](CCCNC(N)=O)NC(=O)[C@H](CC(=O)O)NC(=O)CNC1=O) [LXW73]
5.00 to 6.00

Hey, just so you know, these numbers are from patent US9073974B2.
